target.under.test: HLA-A*69:01
assay.info: IEDB peptide-MHC binding, purified MHC/direct/fluorescence; filed as Kd, often an IC50 or EC50 that approximates it; bounds were set here for any values at or beyond the usual limits of such assays
conditions.used: source organism: Camelpox virus CMS
property: Kd (nM)

>>> number("LMDENTYAM")
57.8

====

target.under.test: HLA-A*02:03
assay.info: IEDB peptide-MHC binding, purified MHC/competitive/radioactivity; filed as Kd, often an IC50 or EC50 that approximates it; bounds were set here for any values at or beyond the usual limits of such assays
conditions.used: source organism: Homo sapiens
property: Kd (µM)

>>> number("ELAAHQKKIL")
19

====

target.under.test: HLA-A*24:03
assay.info: IEDB peptide-MHC binding, purified MHC/competitive/fluorescence; filed as Kd, often an IC50 or EC50 that approximates it; bounds were set here for any values at or beyond the usual limits of such assays
conditions.used: source organism: Escherichia coli 536
pKd: −log10 of the molar value.
property: pKd

>>> number("PYKIPATVI")
5.98

====

target.under.test: HLA-B*15:17
assay.info: IEDB peptide-MHC binding, purified MHC/competitive/fluorescence; filed as Kd, often an IC50 or EC50 that approximates it; bounds were set here for any values at or beyond the usual limits of such assays
conditions.used: source organism: Yersinia mollaretii ATCC 43969
property: Kd

>>> result("DEQEFFYSQ")
"≥ 20 µM"

====

target.under.test: HLA-B*35:01
assay.info: IEDB peptide-MHC binding, purified MHC/direct/fluorescence; filed as Kd, often an IC50 or EC50 that approximates it; bounds were set here for any values at or beyond the usual limits of such assays
conditions.used: source organism: Salmonella enterica subsp. enterica serovar Typhimurium
pKd: −log10 of the molar value.
property: pKd

>>> number("MQQSGDEAF")
6.83

====

target.under.test: HLA-B*07:02
assay.info: IEDB peptide-MHC binding, purified MHC/direct/fluorescence; filed as Kd, often an IC50 or EC50 that approximates it; bounds were set here for any values at or beyond the usual limits of such assays
conditions.used: source organism: Corynebacterium glutamicum
pKd: −log10 of the molar value.
property: pKd

>>> number("ATFSRPGSL")
6.18

====

target.under.test: HLA-A*29:02
assay.info: IEDB peptide-MHC binding, purified MHC/direct/fluorescence; filed as Kd, often an IC50 or EC50 that approximates it; bounds were set here for any values at or beyond the usual limits of such assays
conditions.used: source organism: Escherichia coli O157:H7 str. EC869
pKd: −log10 of the molar value.
property: pKd

>>> result("SQFNHWFGE")
"≤ 4.70"

====

target.under.test: HLA-A*31:01
assay.info: IEDB peptide-MHC binding, purified MHC/competitive/radioactivity; filed as Kd, often an IC50 or EC50 that approximates it; bounds were set here for any values at or beyond the usual limits of such assays
conditions.used: source organism: Vaccinia virus WR
pKd: −log10 of the molar value.
property: pKd

>>> number("TLISLNSMY")
5.09
>>> number("NARGEDTQMR")
5.75
>>> number("ILGGVLHTK")
5.86
>>> number("PSIFLIITK")
5.03
>>> number("VSLSAYIIR")
7.40
>>> number("VSMTYLYNK")
8.56
>>> number("AALDGTFQR")
7.44
>>> number("TLYVKALTK")
5.53
>>> number("TTKDYFSFK")
8.88
>>> number("SIENKHQRR")
6.78
>>> number("FTDISMSLY")
4.97
>>> number("FMSHVKSVTK")
6.55
>>> number("DVSMMSMYGK")
6.64
>>> number("TQIFEVYWY")
5.42
>>> number("ASITPNNLNK")
7.32
>>> number("QTSVNTVVR")
5.40
>>> number("LVYFSTQQNK")
5.28
>>> number("QSYKETVHK")
5.26
>>> number("IVHSYLKNYK")
7.56
>>> number("HTCMSECVR")
7.60
